Measurement notes: Quantitative High-Throughput drug screen in 47 multiple myeloma cell lines against the NCATS MIPE library collection: KMS28BM_JCRB cell viability assay (AID 1919874); also: nearly all actives have a fitted effect of over 35% in size
Measurement parameters: CellTiter-Glo ATP, 48 h; series mostly up to 45.8 µM
Records with an inconclusive call do not appear. The source made the active and inactive calls. Calls follow the shape of the dose curve; as a rule, active = well fitted cell-killing curve with a large enough effect; inconclusive = small, poorly fitted or top-dose-only effect, or effect the other way; inactive = no such curve, though single readings can be large or run the other way.
Assign a class; possible classes are active, inactive

CN(CCOc1ccc(NS(C)(=O)=O)cc1)CCc1ccc(NS(C)(=O)=O)cc1	inactive
CC(C)NCC(O)c1ccc(O)c(O)c1 (stereo not given)	active
Cc1ccc(C(=O)Nc2ccc(S(=O)(=O)O)c3cc(S(=O)(=O)O)cc(S(=O)(=O)O)c23)cc1NC(=O)c1cccc(NC(=O)Nc2cccc(C(=O)Nc3cc(C(=O)Nc4ccc(S(=O)(=O)O)c5cc(S(=O)(=O)O)cc(S(=O)(=O)O)c45)ccc3C)c2)c1	inactive
Fc1ccc([C@@H]2CCNC[C@H]2COc2ccc3c(c2)OCO3)cc1	active
CN1CCN(CCCN2c3ccccc3Sc3ccc(Cl)cc32)CC1	active
CC(C)(C)C(=O)Oc1ccc(S(=O)(=O)Nc2ccccc2C(=O)NCC(=O)O)cc1	inactive

(Q) Record lookup: outcome of this test for `COC(=O)Nc1nc2ccc(C(=O)c3cccs3)cc2[nH]1` ?
(A) inactive

(Q) Another molecule to check: `O=c1[nH]cc(F)c(=O)[nH]1`
(A) inactive

(Q) Continue with `NCCCCCC(=O)O`
(A) inactive

(Q) Entry to check: CCC1(C)CC(=O)NC1=O (stereo not given)
(A) inactive

----------
Tested on: CP194
Measurement notes: qHTS profiling for inhibitors of Plasmodium falciparum proliferation (AID 504749); also: nearly all actives have a fitted effect of over 60% in size
Measurement parameters: P. falciparum in erythrocytes, SYBR Green DNA, 72 h; series mostly up to 28.7 µM
Experimental: NIH National Institute of Allergy and Infectious Diseases [NIAID] NIH Chemical Genomics Center [NCGC] […] Because mature erythrocytes lack DNA, only Plasmodium-derived DNA is detected. NCGC Assay Protocol Summary: The SYBR Green viability assay was adapted from a method described previously (Plouffe et al., 2008). […] The following morning, fluorescence intensity at 485(14) nm excitation and 535(25) nm emission wavelengths was measured on an EnVision (Perkin Elmer) plate reader. […]
Records with an inconclusive call do not appear. The source made the active and inactive calls. Calls come from the whole dose curve; as a rule, active = well fitted inhibition curve with a large enough effect; inconclusive = small, poorly fitted or top-dose-only effect; inactive = flat fitted curve, though single readings scatter.
Your answer must be one of the following: true for active, false for inactive

COc1cc2c(c(OC)c1OC)-c1ccc(OC)c(=O)cc1[C@@H](NC(C)=O)CC2	false
CC(C)(Oc1ccc(C2CC2(Cl)Cl)cc1)C(=O)O (configuration not stated)	false
Cc1cc(C(C)(C)C)cc(C)c1CC1=NCCN1	false
Cc1cn([C@H]2C=C[C@@H](CO)O2)c(=O)[nH]c1=O	false
Cc1ccc(C(=O)Nc2ccc(S(=O)(=O)O)c3cc(S(=O)(=O)O)cc(S(=O)(=O)O)c23)cc1NC(=O)c1cccc(NC(=O)Nc2cccc(C(=O)Nc3cc(C(=O)Nc4ccc(S(=O)(=O)O)c5cc(S(=O)(=O)O)cc(S(=O)(=O)O)c45)ccc3C)c2)c1	false
Cn1c(=O)c2[nH]cnc2n(C)c1=O	false

(Q) Please indicate how the test categorized `NCCc1cnc[nH]1` .
(A) false

(Q) Next record, please: CC(C)Cc1ccc(C(C)C(=O)O)cc1 (configuration not stated)
(A) false

(Q) Also need `O=C(c1ccc(F)cc1)C1CCN(CCn2c(=O)[nH]c3ccccc3c2=O)CC1` , thanks.
(A) false

(Q) Also `CS(=O)(=O)Nc1ccc([N+](=O)[O-])cc1Oc1ccccc1` ?
(A) false
